- Target or test system: MRCKβ (Homo sapiens (Human), UniProt Q9Y5S2)
- Assay text: MRCKβ kinase assay (IMAP fluorescence polarization)
- Format: biochemical
- Measurement setup: 1 μM ATP; read-out: MRCK-B Average Ki
pKi: −log10 of the molar value.
Please note: yes applies when pKi is 8 or greater, and no applies otherwise.

{"columns": ["Compound", "Target or test system", "Class name"],
 "data": [
  ["CCN[C@H]1CCCN(c2ccnc3[nH]cc(-c4ccnnc4)c23)C1", "MRCKβ (Homo sapiens (Human), UniProt Q9Y5S2)", "yes"],
  ["c1ncc(-c2c[nH]c3nccc(N4CCC[C@H](N5CCC5)C4)c23)cn1", "MRCKβ (Homo sapiens (Human), UniProt Q9Y5S2)", "yes"],
  ["CN[C@H]1CCCN(c2ccnc3[nH]cc(-c4ncccc4F)c23)C1", "MRCKβ (Homo sapiens (Human), UniProt Q9Y5S2)", "yes"],
  ["N#Cc1c[nH]c2nccc(N3CCC[C@@H]3CO)c12", "MRCKβ (Homo sapiens (Human), UniProt Q9Y5S2)", "no"],
  ["c1ccc(-c2c[nH]c3nccc(N4CCC5(CCCN5)C4)c23)nc1 (stereo not drawn)", "MRCKβ (Homo sapiens (Human), UniProt Q9Y5S2)", "yes"],
  ["Cc1[nH]ncc1-c1c[nH]c2nccc(N3CCCCC3)c12", "MRCKβ (Homo sapiens (Human), UniProt Q9Y5S2)", "no"],
  ["c1cnnc(-c2c[nH]c3nccc(N4CCCCC4)c23)c1", "MRCKβ (Homo sapiens (Human), UniProt Q9Y5S2)", "no"],
  ["Cc1cnc(-c2c[nH]c3nccc(N4CCC[C@@]5(CCCCN5)C4)c23)s1", "MRCKβ (Homo sapiens (Human), UniProt Q9Y5S2)", "yes"],
  ["OC1CCN([C@H]2CCCN(c3ccnc4[nH]cc(-c5cncnc5)c34)C2)C1 (stereo partly drawn)", "MRCKβ (Homo sapiens (Human), UniProt Q9Y5S2)", "yes"],
  ["c1cc(N2CCC[C@]3(CCCCN3)C2)c2c(-c3ncsn3)c[nH]c2n1", "MRCKβ (Homo sapiens (Human), UniProt Q9Y5S2)", "yes"],
  ["c1cc(-c2c[nH]c3nccc(N4CCC[C@H](NC5CC5)C4)c23)ncn1", "MRCKβ (Homo sapiens (Human), UniProt Q9Y5S2)", "yes"],
  ["O[C@H]1CCCN(c2ccnc3[nH]cc(-c4cncnc4)c23)C1", "MRCKβ (Homo sapiens (Human), UniProt Q9Y5S2)", "no"],
  ["Fc1cncc(-c2c[nH]c3nccc(N4CCCC5(CCCCN5)C4)c23)c1 (stereo not drawn)", "MRCKβ (Homo sapiens (Human), UniProt Q9Y5S2)", "yes"],
  ["c1cc(N2CCCC3(CCCCN3)C2)c2c(-c3ncsn3)c[nH]c2n1 (stereo not drawn)", "MRCKβ (Homo sapiens (Human), UniProt Q9Y5S2)", "yes"],
  ["CN1CCC[C@@H](COc2ccnc3[nH]cc(-c4cncnc4)c23)C1", "MRCKβ (Homo sapiens (Human), UniProt Q9Y5S2)", "yes"],
  ["c1ccc(-c2c[nH]c3nccc(N4CCC[C@@]5(CCCCN5)C4)c23)nc1", "MRCKβ (Homo sapiens (Human), UniProt Q9Y5S2)", "yes"],
  ["c1ncc(-c2c[nH]c3nccc(N4CCCCC4)c23)cn1", "MRCKβ (Homo sapiens (Human), UniProt Q9Y5S2)", "no"],
  ["c1ncc(-c2c[nH]c3nccc(N4CCCC5(CCCN5)C4)c23)cn1 (stereo not drawn)", "MRCKβ (Homo sapiens (Human), UniProt Q9Y5S2)", "yes"],
  ["c1csc(-c2c[nH]c3nccc(N4CCCC5(CCCCN5)C4)c23)n1 (stereo not drawn)", "MRCKβ (Homo sapiens (Human), UniProt Q9Y5S2)", "yes"],
  ["CNc1cc(-c2c[nH]c3nccc(N4CCCCC4)c23)ccn1", "MRCKβ (Homo sapiens (Human), UniProt Q9Y5S2)", "yes"],
  ["COCCN[C@H]1CCCN(c2ccnc3[nH]cc(-c4cncnc4)c23)C1", "MRCKβ (Homo sapiens (Human), UniProt Q9Y5S2)", "yes"],
  ["CNC(=O)c1cncc(-c2c[nH]c3nccc(N4CCCCC4)c23)c1", "MRCKβ (Homo sapiens (Human), UniProt Q9Y5S2)", "no"],
  ["N#Cc1c[nH]c2nccc(N3CCC[C@H]3C(=O)N3CCOCC3)c12", "MRCKβ (Homo sapiens (Human), UniProt Q9Y5S2)", "no"],
  ["Cc1cnc(-c2c[nH]c3nccc(N4CC[C@@]5(CCCCN5)C4)c23)s1", "MRCKβ (Homo sapiens (Human), UniProt Q9Y5S2)", "yes"],
  ["c1csc(-c2c[nH]c3nccc(N4CCC[C@@]5(CCCCN5)C4)c23)n1", "MRCKβ (Homo sapiens (Human), UniProt Q9Y5S2)", "yes"],
  ["CN[C@H]1CCCN(c2ccnc3[nH]cc(-c4cnccn4)c23)C1", "MRCKβ (Homo sapiens (Human), UniProt Q9Y5S2)", "yes"],
  ["c1cc(-c2c[nH]c3nccc(N4CCC[C@]5(CCCCN5)C4)c23)cnn1", "MRCKβ (Homo sapiens (Human), UniProt Q9Y5S2)", "yes"],
  ["N#Cc1c[nH]c2nccc(N3CCC[C@H]3C(=O)N3CCCCC3)c12", "MRCKβ (Homo sapiens (Human), UniProt Q9Y5S2)", "no"]
]}
